Target: von Willebrand factor (VWF) (Homo sapiens, UniProt P04275 P04275:764-2813)
Experiment: filter; Bmax 84%; 2 mM CaCl2, 37 C
Conditions: tags: factor VIII free, Haematologic Technologies Inc; label: 5'-32P
Method: Affinity constants (Kd values) were determined using double-filter nitrocellulose filter binding assays (Rusconi et al, Thromb. Haemost. $4:841-848 (2000)). All binding studies were performed in binding buffer F (20 mM HEPES, pH 7.4, 150 mM NaCl, 2 mM CaCl₂, and 0.01% BSA) at 37° C. […] The fraction of the nucleic acid-protein complex which bound to the nitrocellulose membrane was quantified with a phosphorimager (Molecular Dynamics, Sunnyvale, Calif.). […]
measured.endpoint: Kd (nM)
Report as a plain number; the unit nM is understood.

Q. Return value of Kd for input ACGAACUGCCCUCGAUCGACGCACAGACGU (ssRNA, mAfCmGmAmAmCfUrGfCfCfCfUmCmGmAmUmCmGrAfCrGfCrAmCmAmGmAfCmGfU-idT) [T59 vrt7] , no commentary.
A. 0.8
